Data credit: paper PMC10397247

Listing of recorded interaction score by entry.
ASSAY_TARGET: T1, P6mSN
T1 chain: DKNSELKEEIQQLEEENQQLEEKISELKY
ASSAY_NAME: two-hybrid library CCNG1;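 note: natural log of median RNA to DNA barcode read ratio; higher means stronger binding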
EXPERIMENTAL_ENDPOINT: interaction score

• DEIRQLEQENSQLERENQRLEQEIYQLER [P1mSN] = -0.582
• DKNSELKEEIQQLEEENQQLEEKISELKY [P6mSN] = 0.276
• DENSQLEEKISQLKQKNSELKEEIQQLEY [P5mSN] = 0.0393
• DEIQQLEEEISQLEQKNSELKEKNQELKY [P3mSN] = -0.522
• DKNSQLKEENSQLEEKIEQLKEKIQELKY [P10mSN] = -0.212
• DKISQLKEKIQQLKQENQQLEEENSQLEY [P4mSN] = -0.838
• DKIEELKEKNSQLKEKNEELKQKIYELKE [P2mSN] = -0.752
• DKNEQLKEKISELKEKIEQLKEENQSLEY [P12mSN] = -1.04
• DENQSLEQEISQLEQEIQQLEQKNSELKY [P11mSN] = -0.793
